# Method Description: binders of probe aHhip on microarray, primary screen, stem cell growth factor project, biochemical, small-molecule microarray, fluorescence 635/667 (AID 1087);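 also: score merges spot fluorescence at 667nm with spot signal to noise ratio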
# Test Settings: higher = more signal
Outcome Measure: composite z-score
// no unit, no text: just the number

Prompt: Consider the compound shown here: CCCC=C(CCC)[C@@H](NC(=O)OCC(C)C)c1ccc(C(=O)OC)cc1 What is its recorded composite z-score?
Response: 2.35

Prompt: And the next one, C=CCNC(=O)[C@H]1[C@@H]2C(=O)O[C@@H](c3ccccc3)[C@@H](c3ccccc3)N2[C@@H](c2ccccc2OCCO)[C@]12C(=O)N(C(=O)OCCOC)c1ccc(C#Cc3ccc(OC)cc3)cc12 ?
Response: -0.0645

Prompt: And the next one, COCCCNC(=O)[C@@]1(Sc2ccc(C)cc2)CC(=O)N(Cc2ccccc2C(F)(F)F)[C@@H]1c1ccc(CO)cc1I ?
Response: -0.132

Prompt: And the next one, COC(=O)[C@]1(CCC(=O)OC(C)(C)C)N=C(c2ccc(OCCCO)cc2)O[C@@H]1c1ccccc1N=[N+]=[N-] ?
Response: -0.484

src = PubChem BioAssay
